System: A498
Measurement description: Cytotoxicity against human A498 cells assessed as cell growth at 10 uM after 48 hrs by SRB assay
Format: functional
Measurement context: A498, 48 h, read-out: Activity
Binarize growth at 10 µM at 90%; below is T, at or above is F.

[
  {
    "Molecule smiles": "Cc1cc(C)n(-c2cn3c(-c4ccccc4)csc3n2)n1",
    "Class assignment": "F"
  },
  {
    "Molecule smiles": "CC1=NN(c2cn3c(-c4ccc(C)cc4)csc3n2)C(=O)C1",
    "Class assignment": "F"
  },
  {
    "Molecule smiles": "CC1=NN(c2cn3c(-c4ccc(Cl)cc4)csc3n2)C(=O)C1",
    "Class assignment": "T"
  },
  {
    "Molecule smiles": "CC1=NN(c2cn3c(-c4ccccc4)csc3n2)C(=O)C1",
    "Class assignment": "F"
  },
  {
    "Molecule smiles": "O=C1CC(=O)N(c2cn3c(-c4ccc(Cl)cc4)csc3n2)N1",
    "Class assignment": "T"
  },
  {
    "Molecule smiles": "Cc1ccc(-c2csc3nc(-n4nc(C)cc4C)cn23)cc1",
    "Class assignment": "F"
  },
  {
    "Molecule smiles": "Cc1cc(C)n(-c2cn3c(-c4ccc(Cl)cc4)csc3n2)n1",
    "Class assignment": "T"
  },
  {
    "Molecule smiles": "O=C1CN2C(c3ccccc3)=CSC2=N1",
    "Class assignment": "F"
  },
  {
    "Molecule smiles": "O=C1CN2C(c3ccc(Cl)cc3)=CSC2=N1",
    "Class assignment": "T"
  },
  {
    "Molecule smiles": "O=C1CC(=O)N(c2cn3c(-c4ccccc4)csc3n2)N1",
    "Class assignment": "T"
  },
  {
    "Molecule smiles": "Cc1ccc(-c2csc3nc(N4NC(=O)CC4=O)cn23)cc1",
    "Class assignment": "F"
  }
]

* * *

Tested on: HCT-116
Measurement description: Cytotoxicity against human HCT116 cells assessed as cell growth at 10 uM after 48 hrs by SRB assay
Format: functional
Measurement context: HCT-116, 48 h, read-out: Activity
Recorded measurements of growth at 10 µM, one per entry
Metric name: growth at 10 µM (%)

[
  {
    "Molecule smiles": "O=C1CN2C(c3ccc(Cl)cc3)=CSC2=N1",
    "Test result": 97.1
  },
  {
    "Molecule smiles": "O=C1CC(=O)N(c2cn3c(-c4ccccc4)csc3n2)N1",
    "Test result": 95.5
  },
  {
    "Molecule smiles": "Cc1ccc(-c2csc3nc(N4NC(=O)CC4=O)cn23)cc1",
    "Test result": 108
  },
  {
    "Molecule smiles": "CC1=NN(c2cn3c(-c4ccccc4)csc3n2)C(=O)C1",
    "Test result": 96.5
  },
  {
    "Molecule smiles": "O=C1CN2C(c3ccccc3)=CSC2=N1",
    "Test result": 97.6
  },
  {
    "Molecule smiles": "Cc1cc(C)n(-c2cn3c(-c4ccccc4)csc3n2)n1",
    "Test result": 101
  },
  {
    "Molecule smiles": "Cc1ccc(-c2csc3nc(-n4nc(C)cc4C)cn23)cc1",
    "Test result": 97
  },
  {
    "Molecule smiles": "O=C1CC(=O)N(c2cn3c(-c4ccc(Cl)cc4)csc3n2)N1",
    "Test result": 93.2
  },
  {
    "Molecule smiles": "Cc1cc(C)n(-c2cn3c(-c4ccc(Cl)cc4)csc3n2)n1",
    "Test result": 89.8
  },
  {
    "Molecule smiles": "CC1=NN(c2cn3c(-c4ccc(Cl)cc4)csc3n2)C(=O)C1",
    "Test result": 97.1
  },
  {
    "Molecule smiles": "CC1=NN(c2cn3c(-c4ccc(C)cc4)csc3n2)C(=O)C1",
    "Test result": 94.4
  }
]

* * *

Recorded measurements of growth at 10 µM, one per entry
Measurement description: Cytotoxicity against human OVCAR4 cells assessed as cell growth at 10 uM after 48 hrs by SRB assay
Type: functional
Measurement context: OVCAR-4, 48 h, read-out: Activity

[
  {
    "Molecule smiles": "CC1=NN(c2cn3c(-c4ccc(Cl)cc4)csc3n2)C(=O)C1",
    "Units symbol": "%",
    "growth at 10 µM": 77.2
  },
  {
    "Molecule smiles": "O=C1CN2C(c3ccc(Cl)cc3)=CSC2=N1",
    "Units symbol": "%",
    "growth at 10 µM": 90.3
  },
  {
    "Molecule smiles": "Cc1cc(C)n(-c2cn3c(-c4ccc(Cl)cc4)csc3n2)n1",
    "Units symbol": "%",
    "growth at 10 µM": 81.9
  },
  {
    "Molecule smiles": "CC1=NN(c2cn3c(-c4ccccc4)csc3n2)C(=O)C1",
    "Units symbol": "%",
    "growth at 10 µM": 98
  },
  {
    "Molecule smiles": "Cc1cc(C)n(-c2cn3c(-c4ccccc4)csc3n2)n1",
    "Units symbol": "%",
    "growth at 10 µM": 93
  },
  {
    "Molecule smiles": "O=C1CC(=O)N(c2cn3c(-c4ccccc4)csc3n2)N1",
    "Units symbol": "%",
    "growth at 10 µM": 81.2
  },
  {
    "Molecule smiles": "Cc1ccc(-c2csc3nc(N4NC(=O)CC4=O)cn23)cc1",
    "Units symbol": "%",
    "growth at 10 µM": 99.1
  },
  {
    "Molecule smiles": "O=C1CN2C(c3ccccc3)=CSC2=N1",
    "Units symbol": "%",
    "growth at 10 µM": 97.7
  },
  {
    "Molecule smiles": "CC1=NN(c2cn3c(-c4ccc(C)cc4)csc3n2)C(=O)C1",
    "Units symbol": "%",
    "growth at 10 µM": 99.9
  },
  {
    "Molecule smiles": "O=C1CC(=O)N(c2cn3c(-c4ccc(Cl)cc4)csc3n2)N1",
    "Units symbol": "%",
    "growth at 10 µM": 87.4
  },
  {
    "Molecule smiles": "Cc1ccc(-c2csc3nc(-n4nc(C)cc4C)cn23)cc1",
    "Units symbol": "%",
    "growth at 10 µM": 97.8
  }
]

* * *

Test system: HOP-92
Measurement description: Cytotoxicity against human HOP92 cells assessed as cell growth at 10 uM after 48 hrs by SRB assay
Format: functional
Measurement context: HOP-92, 48 h, read-out: Activity
Recorded measurements of growth at 10 µM, one per entry
Metric name: growth at 10 µM

[
  {
    "Molecule smiles": "Cc1ccc(-c2csc3nc(-n4nc(C)cc4C)cn23)cc1",
    "System name": "HOP-92",
    "Metric name": "growth at 10 µM",
    "Test result": "78%"
  },
  {
    "Molecule smiles": "CC1=NN(c2cn3c(-c4ccc(C)cc4)csc3n2)C(=O)C1",
    "System name": "HOP-92",
    "Metric name": "growth at 10 µM",
    "Test result": "65.5%"
  },
  {
    "Molecule smiles": "O=C1CC(=O)N(c2cn3c(-c4ccccc4)csc3n2)N1",
    "System name": "HOP-92",
    "Metric name": "growth at 10 µM",
    "Test result": "63.5%"
  },
  {
    "Molecule smiles": "O=C1CC(=O)N(c2cn3c(-c4ccc(Cl)cc4)csc3n2)N1",
    "System name": "HOP-92",
    "Metric name": "growth at 10 µM",
    "Test result": "99.4%"
  },
  {
    "Molecule smiles": "Cc1cc(C)n(-c2cn3c(-c4ccc(Cl)cc4)csc3n2)n1",
    "System name": "HOP-92",
    "Metric name": "growth at 10 µM",
    "Test result": "74.7%"
  },
  {
    "Molecule smiles": "O=C1CN2C(c3ccccc3)=CSC2=N1",
    "System name": "HOP-92",
    "Metric name": "growth at 10 µM",
    "Test result": "78%"
  },
  {
    "Molecule smiles": "Cc1cc(C)n(-c2cn3c(-c4ccccc4)csc3n2)n1",
    "System name": "HOP-92",
    "Metric name": "growth at 10 µM",
    "Test result": "86%"
  },
  {
    "Molecule smiles": "O=C1CN2C(c3ccc(Cl)cc3)=CSC2=N1",
    "System name": "HOP-92",
    "Metric name": "growth at 10 µM",
    "Test result": "111%"
  },
  {
    "Molecule smiles": "Cc1ccc(-c2csc3nc(N4NC(=O)CC4=O)cn23)cc1",
    "System name": "HOP-92",
    "Metric name": "growth at 10 µM",
    "Test result": "75.1%"
  },
  {
    "Molecule smiles": "CC1=NN(c2cn3c(-c4ccc(Cl)cc4)csc3n2)C(=O)C1",
    "System name": "HOP-92",
    "Metric name": "growth at 10 µM",
    "Test result": "73.6%"
  },
  {
    "Molecule smiles": "CC1=NN(c2cn3c(-c4ccccc4)csc3n2)C(=O)C1",
    "System name": "HOP-92",
    "Metric name": "growth at 10 µM",
    "Test result": "66.5%"
  }
]
